Source: PubChem BioAssay AID434939

target: Nuclear receptor subfamily 1 group I member 2 (Homo sapiens); test: human PXR activators, counter-screen for AHR activator project, cell-based, luciferase luminescence (AID 434939); conditions: cell-based PXR reporter, at 11.6 µM, hits give high values;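 further: human hepatoma DPX-2 cells expressing full-length human PXR; 0% = DMSO and 100% = reference agonist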
The whole screen tested about 2,300 compounds, of which about 2,000 (87%) were called active. So high a share suggests a set chosen from earlier hits. The list is a sample of the results.
Please respond with reported activation for every item in the list.
Express your answer in %, writing the number without its unit.

`O=C(Cn1c(NCCO)nc2ccccc21)c1ccc(Cl)cc1Cl` has a reported activation of 31.4

`CCN(CC)C(=O)Oc1ccc(Br)cc1C(=O)Nc1ccc(F)c(Cl)c1` has a reported activation of 176

C/C(CC1CC(C)(C)OC1=O)=N/Nc1nc(-c2ccccc2)cs1 (stereo not drawn) has a reported activation of 189

`Cc1cccc(Nc2nc(-c3ccccc3)cs2)n1` has a reported activation of 25.5

`NNc1nc2c(Cl)cccc2s1` has a reported activation of 8.29

`COc1ccc(C(=O)Nc2ccccc2C(=O)N/N=C/c2ccccc2OC)cc1` has a reported activation of 28

`O=C(CSc1ccccn1)Nc1nc2c(ccc3ccccc32)s1` has a reported activation of 21.9

`CC(C)n1cnc2c(Nc3cccc(Cl)c3)nc(N(CCO)CCCO)nc21` has a reported activation of 255

`CC(C)C(=O)Nc1c(C(=O)c2ccc(F)cc2)oc2ccccc12` has a reported activation of 25.4

`CN(C)c1nc(Nc2ccc(Cl)c(Cl)c2)nc(N(C)C)n1` has a reported activation of 23.1

`CN(C)S(=O)(=O)Oc1ccccc1C(=O)Nc1ccccc1Cl` has a reported activation of 82.8

`O=C(Nc1ccc(C(F)(F)F)cc1)c1cccc(-n2cnnn2)c1` has a reported activation of 16.3

`O=C(Nc1ccc(OC(F)(F)F)cc1)c1ccc2c(c1)no[n+]2[O-]` has a reported activation of 0.82

`CCn1ccnc1CN(C)Cc1nc(-c2ccc3c(c2)OCO3)no1` has a reported activation of 37.5

CCC(C)NCC(=O)Nc1ccc([N+](=O)[O-])cc1C(=O)Nc1ccccc1F (stereo not drawn) has a reported activation of 40.5

`O=C(N/N=C/c1c[nH]c2ccccc12)c1cc2ccccc2o1` has a reported activation of 7.59

`Cn1cc(Cl)c(C(=O)NNC(=S)Nc2cccc(Cl)c2)n1` has a reported activation of 22.8

`Cc1cccc(NC(=O)Nc2ccc3c(c2)OCO3)n1` has a reported activation of 46.3

`S=c1[nH]nc(-c2cc(-c3ccsc3)n[nH]2)n1-c1ccccc1` has a reported activation of 13.7

`O=C(CCCCn1c(=O)[nH]c2ccccc2c1=O)NCc1ccc2c(c1)OCO2` has a reported activation of 37.2

`O=C(Nc1cc(S(=O)(=O)Nc2ccc(Cl)cc2)ccc1O)c1ccc(F)cc1F` has a reported activation of 38.8

`Cc1ccnc(NC(=O)c2ccc(Cl)c([N+](=O)[O-])c2)c1` has a reported activation of 42.9

`CC(C)n1ncc2c(C(=O)Nc3ccc(CC#N)cc3)cc(C3CC3)nc21` has a reported activation of 48.4

O=C(CC1Nc2ccccc2NC1=O)Nc1ccccc1 (stereo not drawn) has a reported activation of 26.3

O=C(Nc1cccc(Cl)c1)C1CCCN(c2cnccn2)C1 (stereo not drawn) has a reported activation of 29.6

`CCCCC(=O)Nc1ccc(C(=O)Nc2cc(C(F)(F)F)ccc2Cl)cc1` has a reported activation of 15.4

`O=C(Nn1c(-c2ccc(Cl)cc2)nc2ccccc2c1=O)c1cccnc1Cl` has a reported activation of 14.3

`C=CCOc1c(Br)cc(/C=N\n2nnnc2N)cc1OC` has a reported activation of 78.1

`Cn1c(C(=O)NCCc2ccsc2)cc2c(=O)n(C)c3ccccc3c21` has a reported activation of 75.7

`CSc1ccc(C#N)cc1NC(=O)c1ccc(Cl)cc1` has a reported activation of 18.5

Cc1ccc(Cl)cc1NC(=O)C1CCCN(c2cnccn2)C1 (stereo not drawn) has a reported activation of 41.2

`COc1cc(CNCc2ccc3c(c2)OCO3)c([N+](=O)[O-])cc1OC` has a reported activation of 36.7

`O=C(Nc1ccc(Cl)cn1)c1cnn2cccnc12` has a reported activation of 35.9

`COc1ccc(Nc2nnc(C)c3ccccc23)cc1` has a reported activation of 73.7

`Cc1cc(O)c(C(=O)/C=C/c2c(F)c(F)c(F)c(F)c2F)c(=O)o1` has a reported activation of 23.8

`Cc1nn(-c2ccccc2)c2[nH]c(C(F)(F)F)cc(=O)c12` has a reported activation of 25.8

`Cc1nc2sc(C(=O)c3ccccc3)c(N)c2c2c1CCCC2` has a reported activation of 69.6

`O=C(NCCCn1ccnc1)c1cc(-c2ccccc2)on1` has a reported activation of 41.3

`O=C(Nc1cccc(Br)c1)c1ccc2snnc2c1` has a reported activation of 22.9

`Cc1cccc(N=Nc2c(O)[nH]c3ccc(F)cc23)c1` has a reported activation of 16.1

`Cc1noc(C)c1/C=N/Nc1ccc2ccccc2n1` has a reported activation of 25.9

`CC(=O)Nc1ccc(-c2nc3ccccc3o2)cc1` has a reported activation of 10.9

Cc1c(C(=O)NCC(c2ccco2)N2CCCC2)oc2ccc(Cl)cc12 (stereo not drawn) has a reported activation of 56.2
